# assay_details: Half life in simulated gastric fluid at pH 1.2
# Format: ADME
experimental_endpoint: half-life

Ask | Look at this molecule and give its reported half-life. CS(=O)(=O)O.C[C@H](N)C(=O)O[C@@H](C)C(=O)N1CCC(CCn2c(Sc3cc4c(cc3Br)OCO4)nc3c(N)ncnc32)CC1
Reply | > 240 min

* * *

# assay_details: Tmax in mouse at 200 mg/kg, po administered with 2% CMC by LC-ESI-MS/MS analysis
# Assay type: ADME, organism-based
# measurement_parameters: in vivo
experimental_endpoint: Tmax

Ask | Returns the measured Tmax for the input compound. Input: C[C@H](O)C(=O)N1CCC(CCn2c(Sc3cc4c(cc3Br)OCO4)nc3c(N)ncnc32)CC1
Reply | 18 min
